meta.source: ChEMBL document CHEMBL1275303

Tested on: Nannizzia gypsea
ASSAY EXPLANATION: Antimicrobial activity against Microsporum gypseum at 100 ug/mL after 72 hrs by well plate method
Format: functional
CONDITION: read-out: IZ
RECORDED METRIC: zone of inhibition at 100 µg/mL (mm)

INSERT INTO assay_data (molecule, numeric_value) VALUES
  ('O=c1c2ccccc2c(Cc2nnc(-c3ccc(Cl)cc3)o2)nn1Cc1cnc(Cl)s1', 4),
  ('O=c1c2ccccc2c(Cc2nnc(C3CC3)o2)nn1CCN1CCOCC1', 6),
  ('O=c1c2ccccc2c(Cc2nnc(-c3ccc(Cl)cc3)o2)nn1CCN1CCOCC1', 3),
  ('Cc1ccccc1-c1nnc(Cc2nn(CCN3CCOCC3)c(=O)c3ccccc23)o1', 2),
  ('Cc1nnc(Cc2nn(CCN3CCOCC3)c(=O)c3ccccc23)o1', 3.5),
  ('O=c1c2ccccc2c(Cc2nnc(-c3ccc(Cl)cc3)o2)nn1Cc1ccc(Cl)nc1', 4),
  ('O=c1c2ccccc2c(Cc2nnc(C(F)(F)F)o2)nn1Cc1cnc(Cl)s1', 5.5),
  ('O=c1c2ccccc2c(Cc2nnc(C(F)(F)F)o2)nn1CCN1CCOCC1', 4),
  ('O=c1c2ccccc2c(Cc2nnc(-c3ccc(F)cc3)o2)nn1Cc1cnc(Cl)s1', 8.5),
  ('O=c1c2ccccc2c(Cc2nnc(-c3ccc(F)cc3)o2)nn1Cc1ccc(Cl)nc1', 6.5);

---

System: Bacillus subtilis
ASSAY EXPLANATION: Antimicrobial activity against Bacillus subtilis at 50 ug/mL after 24 hrs by well plate method
Type: functional
CONDITION: read-out: IZ
# label = YES if zone of inhibition at 50 µg/mL >= 3 mm else NO

INSERT INTO results (molecule, label_value) VALUES
  ('Cc1nnc(Cc2nn(CCN3CCOCC3)c(=O)c3ccccc23)o1', 'NO'),
  ('O=c1c2ccccc2c(Cc2nnc(-c3ccsc3)o2)nn1Cc1cnc(Cl)s1', 'YES'),
  ('O=c1c2ccccc2c(Cc2nnc(C(F)(F)F)o2)nn1CCN1CCOCC1', 'NO'),
  ('O=c1c2ccccc2c(Cc2nnc(C(F)(F)F)o2)nn1Cc1ccc(Cl)nc1', 'NO'),
  ('Cc1ccccc1-c1nnc(Cc2nn(Cc3ccc(Cl)nc3)c(=O)c3ccccc23)o1', 'NO'),
  ('O=c1c2ccccc2c(Cc2nnc(C3CC3)o2)nn1CCN1CCOCC1', 'YES'),
  ('O=c1c2ccccc2c(Cc2nnc(-c3ccsc3)o2)nn1Cc1ccc(Cl)nc1', 'YES'),
  ('O=c1c2ccccc2c(Cc2nnc(-c3ccc(Cl)nc3)o2)nn1Cc1ccc(Cl)nc1', 'YES'),
  ('O=c1c2ccccc2c(Cc2nnc(-c3ccc(Cl)nc3)o2)nn1CCN1CCOCC1', 'YES'),
  ('O=c1c2ccccc2c(Cc2nnc(-c3ccc(Cl)cc3)o2)nn1CCN1CCOCC1', 'NO'),
  ('Cc1nnc(Cc2nn(Cc3ccc(Cl)nc3)c(=O)c3ccccc23)o1', 'NO'),
  ('CC1(C)S[C@@H]2[C@H](NC(=O)[C@H](N)c3ccc(O)cc3)C(=O)N2[C@H]1C(=O)O', 'YES'),
  ('O=c1c2ccccc2c(Cc2nnc(C3CC3)o2)nn1Cc1ccc(Cl)nc1', 'YES'),
  ('O=c1c2ccccc2c(Cc2nnc(C3CC3)o2)nn1Cc1cnc(Cl)s1', 'NO'),
  ('Cc1ccccc1-c1nnc(Cc2nn(Cc3cnc(Cl)s3)c(=O)c3ccccc23)o1', 'NO');

---

Tested on: Aspergillus flavus
ASSAY EXPLANATION: Antimicrobial activity against Aspergillus flavus at 100 ug/mL after 72 hrs by well plate method
Type: functional
CONDITION: read-out: IZ
RECORDED METRIC: zone of inhibition at 100 µg/mL (mm)

INSERT INTO assay_data (molecule, recorded_metric, numeric_value) VALUES
  ('O=c1c2ccccc2c(Cc2nnc(-c3ccc(F)cc3)o2)nn1CCN1CCOCC1', 'zone of inhibition at 100 µg/mL', 4),
  ('O=c1c2ccccc2c(Cc2nnc(C3CC3)o2)nn1Cc1cnc(Cl)s1', 'zone of inhibition at 100 µg/mL', 6),
  ('O=c1c2ccccc2c(Cc2nnc(-c3ccc(F)cc3)o2)nn1Cc1cnc(Cl)s1', 'zone of inhibition at 100 µg/mL', 5),
  ('O=c1c2ccccc2c(Cc2nnc(-c3ccc(F)cc3)o2)nn1Cc1ccc(Cl)nc1', 'zone of inhibition at 100 µg/mL', 4),
  ('O=c1c2ccccc2c(Cc2nnc(-c3ccc(Cl)cc3)o2)nn1Cc1ccc(Cl)nc1', 'zone of inhibition at 100 µg/mL', 5),
  ('Cc1ccccc1-c1nnc(Cc2nn(CCN3CCOCC3)c(=O)c3ccccc23)o1', 'zone of inhibition at 100 µg/mL', 3),
  ('Cc1ccccc1-c1nnc(Cc2nn(Cc3ccc(Cl)nc3)c(=O)c3ccccc23)o1', 'zone of inhibition at 100 µg/mL', 4);

---

System: Bacillus subtilis
ASSAY EXPLANATION: Antimicrobial activity against Bacillus subtilis at 50 ug/mL after 24 hrs by well plate method
Type: functional
CONDITION: read-out: IZ
# Lookup of reported zone of inhibition at 50 µg/mL keyed by entry
RECORDED METRIC: zone of inhibition at 50 µg/mL

INSERT INTO results (molecule, target, result) VALUES
  ('Cc1ccccc1-c1nnc(Cc2nn(CCN3CCOCC3)c(=O)c3ccccc23)o1', 'Bacillus subtilis', '2.5 mm'),
  ('O=c1c2ccccc2c(Cc2nnc(-c3ccc(F)cc3)o2)nn1Cc1ccc(Cl)nc1', 'Bacillus subtilis', '3 mm'),
  ('O=c1c2ccccc2c(Cc2nnc(-c3ccc(F)cc3)o2)nn1Cc1cnc(Cl)s1', 'Bacillus subtilis', '2 mm'),
  ('O=c1c2ccccc2c(Cc2nnc(-c3ccc(Cl)nc3)o2)nn1Cc1cnc(Cl)s1', 'Bacillus subtilis', '4 mm');

---

System: Bacillus subtilis
ASSAY EXPLANATION: Antimicrobial activity against Bacillus subtilis at 50 ug/mL after 24 hrs by well plate method
Format: functional
CONDITION: read-out: IZ
RECORDED METRIC: zone of inhibition at 50 µg/mL (mm)

INSERT INTO assay_data (molecule, numeric_value) VALUES
  ('O=c1c2ccccc2c(Cc2nnc(C(F)(F)F)o2)nn1Cc1cnc(Cl)s1', 3),
  ('O=c1c2ccccc2c(Cc2nnc(-c3ccc(Cl)cc3)o2)nn1Cc1cnc(Cl)s1', 3),
  ('O=c1c2ccccc2c(Cc2nnc(-c3ccsc3)o2)nn1CCN1CCOCC1', 3),
  ('O=c1c2ccccc2c(Cc2nnc(-c3ccc(F)cc3)o2)nn1CCN1CCOCC1', 3);
